assay_target: GRM7 (Homo sapiens)
Construct: purchased Promega (in-house HiBiT-GPCR construct library, NanoBRET)
Sequence (Q14831 35-915): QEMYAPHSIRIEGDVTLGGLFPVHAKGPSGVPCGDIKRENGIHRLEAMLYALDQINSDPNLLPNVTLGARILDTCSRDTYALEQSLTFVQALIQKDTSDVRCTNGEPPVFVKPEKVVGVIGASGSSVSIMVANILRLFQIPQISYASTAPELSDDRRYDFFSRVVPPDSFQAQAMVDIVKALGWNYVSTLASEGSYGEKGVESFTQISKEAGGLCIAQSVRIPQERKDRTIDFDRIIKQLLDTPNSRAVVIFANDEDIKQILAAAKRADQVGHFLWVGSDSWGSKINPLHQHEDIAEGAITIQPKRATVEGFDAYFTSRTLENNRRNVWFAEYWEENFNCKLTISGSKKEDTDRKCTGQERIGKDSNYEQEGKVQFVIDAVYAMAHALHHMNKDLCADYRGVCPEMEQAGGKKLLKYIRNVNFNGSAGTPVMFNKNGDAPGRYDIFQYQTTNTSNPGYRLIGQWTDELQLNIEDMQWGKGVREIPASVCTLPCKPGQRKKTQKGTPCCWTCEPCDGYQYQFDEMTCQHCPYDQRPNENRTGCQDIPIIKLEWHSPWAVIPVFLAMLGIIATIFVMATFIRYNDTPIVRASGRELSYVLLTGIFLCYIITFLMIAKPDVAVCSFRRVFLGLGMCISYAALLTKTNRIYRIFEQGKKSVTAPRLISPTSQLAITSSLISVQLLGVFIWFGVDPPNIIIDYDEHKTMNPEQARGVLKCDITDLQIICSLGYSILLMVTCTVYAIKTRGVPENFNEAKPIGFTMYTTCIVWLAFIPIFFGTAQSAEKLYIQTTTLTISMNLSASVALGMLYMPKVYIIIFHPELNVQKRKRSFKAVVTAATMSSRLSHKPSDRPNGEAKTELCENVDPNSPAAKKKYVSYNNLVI
test_method_notes: NanoBRET screen HiBiT-GRM7 in HEK293
Assay type: binding
settings: GRM7; tracer 0.1μM
Give measured NanoBRET Fold Response for each item. Keep answers brief.

State its NanoBRET Fold Response: "CC(C)N(CC[C@H](c1ccccc1)c1cc(CCNC(=O)c2ccc(CNC(=O)CCc3ccc4n3[B-](F)(F)[N+]3=C(c5ccc[nH]5)C=CC3=C4)cc2)ccc1O)C(C)C" 0.99

State its NanoBRET Fold Response: "CCCn1c(=O)c2[nH]c(-c3ccc(OCC(=O)NCCNC(=O)CCOCCNC(=O)c4ccc(CNC(=O)CCc5ccc6n5[B-](F)(F)[N+]5=C(c7ccc[nH]7)C=CC5=C6)cc4)cc3)nc2n(CCC)c1=O" 1.03

State its NanoBRET Fold Response: "O=C(CCc1ccc2n1[B-](F)(F)[N+]1=C(c3ccc[nH]3)C=CC1=C2)NCCOCCOCCNC(=O)OCCOCCN1CCN(C2=Nc3ccccc3Sc3ccccc32)CC1" 1.03

State its NanoBRET Fold Response: "COc1ccccc1N1CCN(CCCCN2C(=O)c3ccc(CNC(=O)CCOCCNC(=O)c4ccc(CNC(=O)CCc5ccc6n5[B-](F)(F)[N+]5=C(c7ccc[nH]7)C=CC5=C6)cc4)cc3C2=O)CC1" 1.01

State its NanoBRET Fold Response: O=C(CCc1ccc2n1[B-](F)(F)[N+]1=C(c3ccc[nH]3)C=CC1=C2)NCc1ccc(C(=O)NCCOCCC(=O)N[C@@H]2CC[C@@]3(O)[C@H]4Cc5ccc(O)c6c5[C@@]3(CCN4CC3CC3)[C@H]2O6)cc1 [Naltrexone-3-NB590] 1.01

====

Give measured NanoBRET Fold Response for each item. Keep answers brief.
assay_target: TACR3 (Homo sapiens)
Construct: purchased Promega (in-house HiBiT-GPCR construct library, NanoBRET)
Sequence (P29371 1-465): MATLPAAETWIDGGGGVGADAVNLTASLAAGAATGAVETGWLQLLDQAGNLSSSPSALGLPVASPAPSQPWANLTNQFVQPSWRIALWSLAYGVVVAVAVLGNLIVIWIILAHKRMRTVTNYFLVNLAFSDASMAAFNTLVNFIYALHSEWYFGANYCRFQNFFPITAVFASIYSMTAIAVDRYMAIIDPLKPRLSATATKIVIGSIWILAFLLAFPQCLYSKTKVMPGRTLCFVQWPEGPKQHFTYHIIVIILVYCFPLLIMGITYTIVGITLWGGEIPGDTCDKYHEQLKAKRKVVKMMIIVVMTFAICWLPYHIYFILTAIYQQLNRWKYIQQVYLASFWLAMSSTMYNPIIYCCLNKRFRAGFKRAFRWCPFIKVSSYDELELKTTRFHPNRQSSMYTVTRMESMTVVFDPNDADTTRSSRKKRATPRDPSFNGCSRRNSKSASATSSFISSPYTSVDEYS
test_method_notes: NanoBRET screen HiBiT-TACR3 in HEK293
Format: binding
settings: TACR3; tracer 0.1μM
Protocol: Each tracer candidate was screened across the entire library of HiBiT-GPCR constructs using NanoBRET as the detection modality. As depicted in Figure 4A, the specificity of interactions was evaluated through decrease in BRET due to competitive displacement of a bound tracer by excess parental compound. Each tracer was analyzed for binding to each HiBiT-GPCR fusion in the absence and in the presence of competing parental compound. […]
Number only, no unit.

State its NanoBRET Fold Response: O=C(CCOCCOCCOCCOCCNC(=O)CCc1ccc2n1[B-](F)(F)[N+]1=C(c3ccc[nH]3)C=CC1=C2)NCCCN1CCN(C2=Nc3ccccc3Oc3ccc(Cl)cc32)CC1 [Loxapine-a-2-NB590] 1.08

State its NanoBRET Fold Response: CC(C)N(CC[C@H](c1ccccc1)c1cc(CCNC(=O)c2ccc(CNC(=O)CCc3ccc4n3[B-](F)(F)[N+]3=C(c5ccc[nH]5)C=CC3=C4)cc2)ccc1O)C(C)C [Tolterodine-BZ-NB590] 0.98

State its NanoBRET Fold Response: O=C(CCc1ccc2n1[B-](F)(F)[N+]1=C(c3ccc[nH]3)C=CC1=C2)NCc1ccc(C(=O)NCCOCCC(=O)N[C@@H]2CC[C@@]3(O)[C@H]4Cc5ccc(O)c6c5[C@@]3(CCN4CC3CC3)[C@H]2O6)cc1 [Naltrexone-3-NB590] 1.19

State its NanoBRET Fold Response: N#CN=C(NCCCOc1cccc(CN2CCCCC2)c1)NCCNC(=O)CCOCCOCCOCCOCCNC(=O)CCc1ccc2n1[B-](F)(F)[N+]1=C(c3ccc[nH]3)C=CC1=C2 [Aminopotentidine-2-NB590] 1.06

State its NanoBRET Fold Response: CC(C)N(CC[C@H](c1ccccc1)c1cc(CCNC(=O)CCOCCOCCOCCOCCNC(=O)CCc2ccc3n2[B-](F)(F)[N+]2=C(c4ccc[nH]4)C=CC2=C3)ccc1O)C(C)C [Tolterodine-2-NB590] 1.11

Value source: paper PMC8151276
